Molecular target: Hexokinase HKDC1 (Homo sapiens)
Experiment: HKDC1 hexokinase activators, primary screen, biochemical, fluorescence, uHTS (AID 493187)
Details: recombinant HKDC1, G6PDH/diaphorase resazurin fluorescence; at 20 µM
The whole screen tested about 340,000 compounds, of which about 190 (0.056%) were called active.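 The calls were made as follows: active = activation of 40% or more at 20 µM, a change of -40% or lower; inactive = the rest.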 The sample as a whole holds a higher share of actives than the screen did.
Outcome codes: yes = active, no = inactive

>  <compound>
O=c1[nH]c2ccccc2n2c(-c3ccccc3)nnc12

>  <categoryLabel>
no

$$$$
>  <compound>
COc1ccc(NC(=O)CSc2ccc(-c3ccco3)nn2)c(OC)c1

>  <categoryLabel>
no

$$$$
>  <compound>
O=C(c1cccnc1)N(c1cc2sc(=O)oc2c2ccccc12)S(=O)(=O)c1ccccc1

>  <categoryLabel>
no

$$$$
>  <compound>
Nc1ccc2nc3c(=O)[nH]c(=S)[nH]c3nc2c1

>  <categoryLabel>
no

$$$$
>  <compound>
O=C1C(Cl)=C(Oc2ccccc2)C(=O)c2ccccc21

>  <categoryLabel>
no

$$$$
>  <compound>
CCn1cc(C(=O)NCc2ccc3c(c2)OCO3)c2cc(OC)c(OC)cc2c1=O

>  <categoryLabel>
no

$$$$
>  <compound>
CC(C)(C)Nc1c(N)c(=O)oc2ccccc12

>  <categoryLabel>
no

$$$$
>  <compound>
O=c1ccc2c(-c3ccccc3S(=O)(=O)O)c3ccc(O)c(O)c3oc-2c1O

>  <categoryLabel>
no

$$$$
>  <compound>
CCc1ccc2c(c1)C1(NN=C(c3ccccc3)S1)C(=O)N2 (stereo unspecified)

>  <categoryLabel>
yes

$$$$
>  <compound>
COc1ccc2c(c1)c(=Cc1ccc(N(C)C)cc1)c1cc(-c3ccccc3)[n+](C)n12

>  <categoryLabel>
no

$$$$
>  <compound>
CN1c2ccc(C=O)c3c(C=O)ccc(c23)N(C)C1(C)C

>  <categoryLabel>
no

$$$$

Source: PubChem BioAssay AID493187
